Assign PAMPA_R3 to each entry below.
settings: PAMPA
Where a SMILES comes first, the peptide text is derived from it. [ ]: non-standard residue; d: D form. dNMeL = CN[C@H](CC(C)C)C(=O)O; dNMeA = CN[C@H](C)C(=O)O
Please reply with the number alone, leaving off any unit.

Per the records, this compound ( CC[C@@H](C)[C@H]1NC(=O)[C@@H](CC(C)C)NC(=O)[C@@H]2CCCN2C(=O)[C@H]2CCCN2C(=O)[C@@H](C(C)C)NC(=O)[C@H](C)NC(=O)[C@@H]2CCCN2C(=O)[C@@H]([C@H](C)CC)NC(=O)[C@@H](C)N(C)C1=O [Design D9.23] (cyclo([dL][dI][dNMeA][dI]PA[dV][dP]P)) ) has PAMPA_R3 equal to 1.50E-07

Per the records, this compound ( CC(C)C[C@@H]1C(=O)N[C@@H](C)C(=O)N[C@H](CC(C)C)C(=O)N2CCC[C@H]2C(=O)N[C@H](C)C(=O)N2CCC[C@@H]2C(=O)N2CCC[C@H]2C(=O)N[C@H](C(C)C)C(=O)N[C@H](CC(C)C)C(=O)N(C)[C@H](CC(C)C)C(=O)N1C [Design D10.43] (cyclo([dV][dL][dNMeL][dNMeL]A[dL]P[dA][dP]P)) ) has PAMPA_R3 equal to 1.70E-07
